Task for the reader: assign each of the following compounds its reported %Inh.
- System: CSNK1G2;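 also: KINOMEscan kinase panel screen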
- RECORDED CONDITIONS: concentration: 1 μM, replicates: in singlicate; n = 1
Answers are plain numbers, in %.

# COMPOUND, UNIT TAG, %Inh
records = [
    ("Cl.Cl.Cl.N#Cc1ccc(CCNc2nccc(-c3cccc(CN4CCNCC4)c3)n2)cc1 [GSK2137462]", "%", 0),
    ("Nc1ncnc2occ(-c3ccc4c(c3)CCN4C(=O)Cc3cc(F)ccc3F)c12 [GSK2645446]", "%", 0),
    ("CS(=O)(=O)CCNCc1nc(-c2ccc3ncnc(Nc4ccc5c(cnn5Cc5ccccc5)c4)c3c2)cs1.Cl.Cl [GW569716]", "%", 0),
    ("COc1ccc(-c2coc3ccc(-c4nnc(C)o4)cc23)cc1", "%", 1),
    ("COC(=O)C(Cc1ccccc1)NC(=O)NC1CCN(c2ccnc(Nc3ccc(F)cc3)n2)C1 (stereo not drawn) [GSK1379714]", "%", 13),
    ("Cc1ccc(NC(=O)Nc2ccccc2)cc1-c1ccc(C(=O)Nc2ccncc2)cc1 [GSK1398471]", "%", 13),
    ("Cn1cncc1C(=O)NC1CCN(c2ccnc(Nc3ccc(F)cc3)n2)C1 (stereo not drawn) [GSK1379717]", "%", 0),
    ("COc1cccc(CNC(=O)NC2CCN(c3ccnc(Nc4ccc(F)cc4)n3)C2)c1 (stereo not drawn) [GSK1379723]", "%", 0),
]

Then there is this compound:
Form: item O=C(Nc1n[nH]c2nc(-c3ccco3)c(Br)cc12)C1CCN(Cc2ccccc2)C1.O=C(O)[C@H](O)[C@@H](O)C(=O)O (stereo not drawn) [SB-742034] ; test system CSNK1G2; %Inh: 32
